# assayInfo: Half life in db/db mouse at 10 mg/kg, po administered as single dose by LC-MS/MS system method
# Assay type: ADME, organism-based
# Set-up: dose 10 mg/kg, route oral
# measurementSetup: db/db, in vivo
measurementLabel: half-life (h)
Reply numerically in h, unit not repeated.

compound CCOc1ccc(Cc2ccc(CC)cc2)cc1[C@@H]1C[C@H](CO)[C@@H](O)[C@H](O)[C@H]1O , half-life observed: 1.57

###

# studyTarget: Cytochrome P450 3A4 (Homo sapiens)
# assayInfo: Inhibition of CYP3A4 using BFC substrate in which compound added to reaction mixture simultaneously with BFC substrate by fluorometric assay
# Type: ADME
Recorded IC50 for the following compounds

// worked examples, IC50 included
IC50 reading for COc1ccc(Cc2cccc([C@@H]3C[C@H](CO)[C@@H](O)[C@H](O)[C@H]3O)c2)cc1 : > 50 µM

Recorded IC50 (compound CCc1ccc(Cc2cccc([C@@H]3C[C@H](CO)[C@@H](O)[C@H](O)[C@H]3O)c2)cc1 ): > 50 µM

Would you kindly look at the next entry?
Reported IC50 ( CCc1ccc(Cc2ccc(OC)c([C@@H]3C[C@H](CO)[C@@H](O)[C@H](O)[C@H]3O)c2)cc1 ) = > 50 µM

###

# studyTarget: Cytochrome P450 3A4 (Homo sapiens, UniProt P08684)
# Sequence (P08684 whole entry): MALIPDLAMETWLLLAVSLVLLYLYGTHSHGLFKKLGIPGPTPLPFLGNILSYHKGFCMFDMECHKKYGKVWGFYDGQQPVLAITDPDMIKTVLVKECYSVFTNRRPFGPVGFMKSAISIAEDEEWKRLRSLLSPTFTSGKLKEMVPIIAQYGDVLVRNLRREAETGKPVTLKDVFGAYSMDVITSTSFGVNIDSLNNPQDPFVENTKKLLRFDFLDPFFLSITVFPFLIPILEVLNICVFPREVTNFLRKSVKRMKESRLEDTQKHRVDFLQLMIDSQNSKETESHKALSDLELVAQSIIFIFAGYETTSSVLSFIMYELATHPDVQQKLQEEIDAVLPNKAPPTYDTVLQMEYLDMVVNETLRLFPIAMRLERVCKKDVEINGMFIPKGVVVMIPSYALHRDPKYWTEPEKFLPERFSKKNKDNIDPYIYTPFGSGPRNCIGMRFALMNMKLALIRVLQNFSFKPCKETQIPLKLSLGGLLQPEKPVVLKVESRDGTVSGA
# assayInfo: Inhibition of CYP3A4 using BFC substrate in which compound added to reaction mixture before addition of BFC substrate by fluorometric assay
# Assay type: ADME
pIC50 by entry:
Friendly reminder that pIC50 comes from taking -log10 of the concentration in mol/L.

Just so you know, measured pIC50 for OC[C@H]1C[C@@H](c2cccc(Cc3ccc(C4CC4)cc3)c2)[C@H](O)[C@@H](O)[C@@H]1O came out at 4.48

New cases:
Record CCc1ccc(Cc2cc([C@@H]3C[C@H](CO)[C@@H](O)[C@H](O)[C@H]3O)c(OC)cc2OC)cc1 , field pIC50: 4.39
